Test system: Helicobacter pylori
Assay: Antibacterial activity against hefC-deficient Helicobacter pylori by NCCLS method
Type: functional
MEASURED_PARAMETER: MIC (µg/mL)

{"COMPOUND_STRUCTURE_STRING": "Cn1cc(S(C)(=O)=O)nc1-c1c2c(=O)n(C)c(=O)n(CC3CC3)c2nn1Cc1c[nH]c2ccc(Cl)cc12", "MIC / µg/mL": 2}

(P) Cn1cc(S(C)(=O)=O)nc1-c1c2c(=O)n(C)c(=O)n(CC3CC3)c2nn1Cc1ccnc2ccc(Cl)cc12
(Q) Cn1cc(S(N)(=O)=O)nc1-c1c2c(=O)n(C)c(=O)n(CC3CC3)c2nn1Cc1c[nH]c2ccc(Cl)cc12
Query: Of P versus Q , which is the one with smaller reported MIC? Answer with the label corresponding to your selection.
Result: Q
(Q: 0.5 µg/mL, P: 4 µg/mL)

* * *

System: Helicobacter pylori
Test: Antibacterial activity against hefC-deficient Helicobacter pylori by NCCLS method
Format: functional
MEASURED_PARAMETER: MIC (µg/mL)

Examples from the recorded data:
{"COMPOUND_STRUCTURE_STRING": "Cn1cc(S(C)(=O)=O)cc1-c1c2c(=O)n(C)c(=O)n(CC3CC3)c2nn1Cc1cn(C)c2ccc(Cl)cc12", "UNITS_OF_MEASURE": "µg/mL", "MIC": 4}
{"COMPOUND_STRUCTURE_STRING": "CONS(=O)(=O)c1cc(-c2c3c(=O)n(C)c(=O)n(CC4CC4)c3nn2Cc2c[nH]c3ccc(Cl)cc23)n(C)c1", "UNITS_OF_MEASURE": "µg/mL", "MIC": 8}
{"COMPOUND_STRUCTURE_STRING": "CONS(=O)(=O)c1cc(-c2c3c(=O)n(C)c(=O)n(CC4CC4)c3nn2Cc2ccnc3ccc(Cl)cc23)n(C)c1", "UNITS_OF_MEASURE": "µg/mL", "MIC": 4}

(A) CNS(=O)(=O)c1cc(-c2c3c(=O)n(C)c(=O)n(CC4CC4)c3nn2Cc2ccnc3ccc(Cl)cc23)n(C)c1
(B) Cn1cc(C#N)cc1-c1c2c(=O)n(C)c(=O)n(CC3CC3)c2nn1Cc1ccnc2ccc(Cl)cc12
Query: Of A versus B , which is the one with smaller reported MIC? Answer with the label corresponding to your selection.
Result: B
(B: 0.25 µg/mL, A: 1 µg/mL)

* * *

Tested on: Helicobacter pylori
Assay: Antibacterial activity against hefC-deficient Helicobacter pylori by NCCLS method
Assay type: functional
MEASURED_PARAMETER: MIC (µg/mL)

Examples from the recorded data:
{"COMPOUND": "Cn1cc([S+](C)[O-])cc1-c1c2c(=O)n(C)c(=O)n(CC3CC3)c2nn1Cc1c[nH]c2ccc(Cl)cc12 (centres undefined)", "UNITS_OF_MEASURE": "µg/mL", "MIC": 4}
{"COMPOUND": "Cn1cc(S(C)(=O)=O)cc1-c1c2c(=O)n(C)c(=O)n(CC3CC3)c2nn1Cc1c[nH]c2ccc(Cl)cc12", "UNITS_OF_MEASURE": "µg/mL", "MIC": 0.5}

(A) Cn1cc([S+](C)[O-])cc1-c1c2c(=O)n(C)c(=O)n(CC3CC3)c2nn1Cc1ccnc2ccc(Cl)cc12 (centres undefined)
(B) Cn1c(=O)c2c(-c3oc(S(C)(=O)=O)cc3Cl)n(Cc3ccnc4ccc(Cl)cc34)nc2n(CC2CC2)c1=O
Query: Of A versus B , which is the one with smaller reported MIC? Answer with the label corresponding to your selection.
Result: A

* * *

Assay: Intrinsic clearance in mouse liver microsome
Type: ADME
Details: liver microsomes
MEASURED_PARAMETER: microsomal CLint (µL/min/mg)

(P) Cn1c(=O)c2c(-c3oc(S(C)(=O)=O)cc3Cl)n(Cc3ccnc4ccc(Cl)cc34)nc2n(CC2CC2)c1=O
(Q) Cn1cc(S(C)(=O)=O)nc1-c1c2c(=O)n(C)c(=O)n(CC3CC3)c2nn1Cc1ccnc2ccc(Cl)cc12
Query: Of P versus Q , which is the one with smaller reported microsomal CLint? Answer with the label corresponding to your selection.
Result: P
(P: 22 µL/min/mg, Q: 56 µL/min/mg)

* * *

Tested on: Helicobacter pylori
Test: Antibacterial activity against hefC-deficient Helicobacter pylori by NCCLS method
Assay type: functional
MEASURED_PARAMETER: MIC (µg/mL)

Examples from the recorded data:
{"COMPOUND_STRUCTURE_STRING": "Cc1oc(S(C)(=O)=O)cc1-c1c2c(=O)n(C)c(=O)n(CC3CC3)c2nn1Cc1cn(C)c2ccc(Cl)cc12", "MIC (µg/mL)": 0.5}
{"COMPOUND_STRUCTURE_STRING": "CNS(=O)(=O)c1cc(-c2c3c(=O)n(C)c(=O)n(CC4CC4)c3nn2Cc2c[nH]c3ccc(Cl)cc23)n(C)c1", "MIC (µg/mL)": 0.5}

(a) Cn1cc(S(C)(=O)=O)cc1-c1c2c(=O)n(C)c(=O)n(CC3CC3)c2nn1Cc1ccnc2ccc(Cl)cc12
(b) Cn1cc(S(N)(=O)=O)cc1-c1c2c(=O)n(C)c(=O)n(CC3CC3)c2nn1Cc1ccnc2ccc(Cl)cc12
Query: Form field 'greater MIC' accepts a or b ; which applies? Answer with the label corresponding to your selection.
Result: a

* * *

Target: Glutamate racemase (Helicobacter pylori (strain ATCC 700392 / 26695) (Campylobacterpylori), UniProt P56068)
Sequence (P56068 whole entry): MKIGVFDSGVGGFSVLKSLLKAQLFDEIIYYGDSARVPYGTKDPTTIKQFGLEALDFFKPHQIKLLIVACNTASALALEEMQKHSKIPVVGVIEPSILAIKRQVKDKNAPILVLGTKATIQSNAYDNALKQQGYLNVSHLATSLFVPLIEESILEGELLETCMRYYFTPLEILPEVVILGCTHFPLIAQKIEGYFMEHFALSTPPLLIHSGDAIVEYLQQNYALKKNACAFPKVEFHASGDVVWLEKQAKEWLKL
Test: Inhibition of Helicobacter pylori MurI
MEASURED_PARAMETER: IC50 (µM)

Examples from the recorded data:
{"COMPOUND": "Cn1cc(S(C)(=O)=O)nc1-c1c2c(=O)n(C)c(=O)n(CC3CC3)c2nn1Cc1ccnc2ccc(Cl)cc12", "MEASURED_PARAMETER": "IC50", "VALUE_REPORTED": 0.16}
{"COMPOUND": "Cn1cc(S(C)(=O)=O)cc1-c1c2c(=O)n(C)c(=O)n(CC3CC3)c2nn1Cc1ccnc2ccc(Cl)cc12", "MEASURED_PARAMETER": "IC50", "VALUE_REPORTED": 0.034}

(P) CNS(=O)(=O)c1cc(-c2c3c(=O)n(C)c(=O)n(CC4CC4)c3nn2Cc2c[nH]c3ccc(Cl)cc23)n(C)c1
(Q) Cn1c(=O)c2c(-c3oc(S(C)(=O)=O)cc3Cl)n(Cc3ccnc4ccc(Cl)cc34)nc2n(CC2CC2)c1=O
Query: Form field 'greater IC50' accepts P or Q ; which applies? Answer with the label corresponding to your selection.
Result: Q
(Q: 0.059 µM, P: 0.027 µM)

(a) Cn1cc(C#N)cc1-c1c2c(=O)n(C)c(=O)n(CC3CC3)c2nn1Cc1ccnc2ccc(Cl)cc12
(b) Cc1oc(S(C)(=O)=O)cc1-c1c2c(=O)n(C)c(=O)n(CC3CC3)c2nn1Cc1cn(C)c2ccc(Cl)cc12
Query: Of a versus b , which is the one with smaller reported IC50? Answer with the label corresponding to your selection.
Result: a
(a: 0.026 µM, b: 0.057 µM)

(P) CONS(=O)(=O)c1cc(-c2c3c(=O)n(C)c(=O)n(CC4CC4)c3nn2Cc2c[nH]c3ccc(Cl)cc23)n(C)c1
(Q) Cn1cc(S(N)(=O)=O)cc1-c1c2c(=O)n(C)c(=O)n(CC3CC3)c2nn1Cc1ccnc2ccc(Cl)cc12
Query: Form field 'greater IC50' accepts P or Q ; which applies? Answer with the label corresponding to your selection.
Result: P

(P) Cn1cc([S+](C)[O-])cc1-c1c2c(=O)n(C)c(=O)n(CC3CC3)c2nn1Cc1ccnc2ccc(Cl)cc12 (stereo not drawn)
(Q) CONS(=O)(=O)c1cc(-c2c3c(=O)n(C)c(=O)n(CC4CC4)c3nn2Cc2ccnc3ccc(Cl)cc23)n(C)c1
(R) Cn1cc([S+](C)[O-])cc1-c1c2c(=O)n(C)c(=O)n(CC3CC3)c2nn1Cc1c[nH]c2ccc(Cl)cc12 (stereo not drawn)
(S) Cn1c(=O)c2c(-c3ccc(S(C)(=O)=O)o3)n(Cc3ccnc4ccc(Cl)cc34)nc2n(CC2CC2)c1=O
Query: Returns the items ordered by IC50, from maximum to minimum. Write out the labels following the order that was asked for.
Result: S, Q, P, R
(S: 1.5 µM, Q: 0.055 µM, P: 0.037 µM, R: 0.023 µM)

(I) Cn1cc(S(C)(=O)=O)cc1-c1c2c(=O)n(C)c(=O)n(CC3CC3)c2nn1Cc1cn(C)c2ccc(Cl)cc12
(II) Cc1oc(S(C)(=O)=O)cc1-c1c2c(=O)n(C)c(=O)n(CC3CC3)c2nn1Cc1ccnc2ccc(Cl)cc12
Query: Form field 'greater IC50' accepts I or II ; which applies? Answer with the label corresponding to your selection.
Result: II

(I) Cn1cc(S(N)(=O)=O)nc1-c1c2c(=O)n(C)c(=O)n(CC3CC3)c2nn1Cc1c[nH]c2ccc(Cl)cc12
(II) Cn1cc(S(C)(=O)=O)cc1-c1c2c(=O)n(C)c(=O)n(CC3CC3)c2nn1Cc1c[nH]c2ccc(Cl)cc12
Query: Of I versus II , which is the one with smaller reported IC50? Answer with the label corresponding to your selection.
Result: II

This collection of values is drawn from ChEMBL document CHEMBL1155910.
